Molecular target: T1, Rhesus monkey glycophorin A on Rhesus monkey red blood cells (Rhesus monkey, UniProt A0A1D5Q349 20-150)
T1 construct: whole, on cells; also called Rhesus RBC; monkey GPA
T1 sequence: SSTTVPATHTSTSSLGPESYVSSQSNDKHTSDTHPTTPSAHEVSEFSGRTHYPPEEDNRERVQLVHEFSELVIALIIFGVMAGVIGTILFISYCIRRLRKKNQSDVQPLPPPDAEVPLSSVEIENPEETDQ
Assay: FACS, RBC Rh02
quantity: fluorescence intensity
Reply with just the number.

Hu6C12-24 (antibody, V domains shown, IgG format; VH.1g + Vk.1b) VH: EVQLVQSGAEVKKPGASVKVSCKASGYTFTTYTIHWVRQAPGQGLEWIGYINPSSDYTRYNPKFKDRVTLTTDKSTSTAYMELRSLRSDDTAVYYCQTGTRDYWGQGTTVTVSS VL: DIQLTQSPSFLSASVGDRVTITCSAASSVSYIYWFQQKPGKAPKLLIYSTSTLPSGVPSRFSGSGSGTEYTLTISSLQPEDFATYYCHQRNSFPFTFGQGTKLEIK : 2540
Hu6C12-12 (antibody, V domains shown, IgG format; VH.1c + Vk.1a) VH: EVQLVQSGAEVKKPGASVKVSCKASGYTFTTYTIHWVRQAPGQGLEWMGYINPSSDYTRYNPKFKDRVTMTTDTSTSTAYMELRSLRSDDTAVYYCQTGTRDYWGQGTTVTVSS VL: DIQLTQSPSFLSASVGDRVTITCSAASSVSYIYWYQQKPGKAPKLLIYSTSTLPSGVPSRFSGSGSGTEYTLTISSLQPEDFATYYCHQRNSFPFTFGQGTKLEIK : 1400
Hu6C12-10 (antibody, V domains shown, IgG format; VH.1a + Vk.1a) VH: EVQLVQSGAEVKKPGASVKVSCKASGYTFTTYTIHWVRQAPGQGLEWMGYINPSSDYTRYNPKFKDRVTMTTDTSTSTAYMELRSLRSDDTAVYYCQRGTRDYWGQGTTVTVSS VL: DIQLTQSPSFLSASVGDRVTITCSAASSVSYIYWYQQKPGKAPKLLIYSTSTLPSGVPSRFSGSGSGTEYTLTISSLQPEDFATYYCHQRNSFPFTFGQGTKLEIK : 1310

For Hu6C12-2 (antibody, V domains shown, IgG format; VH.1b + Vk.1) VH: EVQLVQSGAEVKKPGASVKVSCKASGYTFTTYTIHWVRQAPGQGLEWMGYINPSSDYTRYNPKFKDRVTMTTDTSTSTAYMELRSLRSDDTAVYYCATGTRDYWGQGTTVTVSS VL: DIQLTQSPSFLSASVGDRVTITCSAASSVSYIYWYQQKPGKAPKLLIYSTSTLPSGVPSRFSGSGSGTEFTLTISSLQPEDFATYYCHQRNSFPFTFGQGTKLEIK , write its fluorescence intensity.
1400

For Hu6C12-6 (antibody, V domains shown, IgG format; VH.1f + Vk.1) VH: EVQLVQSGAEVKKPGASVKVSCKASGYTFTTYTIHWVRQAPGQGLEWMGYINPSSDYTRYNPKFKDRVTLTTDTSTSTAYMELRSLRSDDTAVYYCQTGTRDYWGQGTTVTVSS VL: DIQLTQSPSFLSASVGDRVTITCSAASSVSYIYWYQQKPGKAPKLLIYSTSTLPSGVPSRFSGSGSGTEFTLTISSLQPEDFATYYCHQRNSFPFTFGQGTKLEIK , write its fluorescence intensity.
1520

These measurements were taken from patent US20190359687A1.
